- Species on record: Rattus norvegicus
- test: Open TG-GATES - Regimen: Daily Repeat
- Format: toxicity, organism-based, Sprague-Dawley
- Parameters: regimen Daily Repeat, gender Male, age 6 weeks
- measurementSetup: in vivo, po, 100 mg/kg, 72 h, tissue Blood, route gavage, dose level Low, time 3 day
Listed next: entries and their corresponding RBC.

{"columns": ["molecule", "RBC, x10_4/ul"],
 "data": [
  ["O=C(N[C@H](CO)[C@H](O)c1ccc([N+](=O)[O-])cc1)C(Cl)Cl [CHLORAMPHENICOL]", 607.2],
  ["O=C(O)c1cccnc1 [NIACIN]", 637],
  ["CC(C)(S)[C@@H](N)C(=O)O [PENICILLAMINE]", 658.2],
  ["CCN1CCCC1CNC(=O)c1cc(S(N)(=O)=O)ccc1OC (centres undefined) [SULPIRIDE]", 649.2]
]}

Numbers sourced from ChEMBL document CHEMBL3885861.
